# Target Entity: ALK (Invitrogen PV3867) (Homo sapiens, UniProt Q9UM73)
# Construct: purchased Invitrogen PV3867
# Sequence (Q9UM73 1058-1620 limits assumed): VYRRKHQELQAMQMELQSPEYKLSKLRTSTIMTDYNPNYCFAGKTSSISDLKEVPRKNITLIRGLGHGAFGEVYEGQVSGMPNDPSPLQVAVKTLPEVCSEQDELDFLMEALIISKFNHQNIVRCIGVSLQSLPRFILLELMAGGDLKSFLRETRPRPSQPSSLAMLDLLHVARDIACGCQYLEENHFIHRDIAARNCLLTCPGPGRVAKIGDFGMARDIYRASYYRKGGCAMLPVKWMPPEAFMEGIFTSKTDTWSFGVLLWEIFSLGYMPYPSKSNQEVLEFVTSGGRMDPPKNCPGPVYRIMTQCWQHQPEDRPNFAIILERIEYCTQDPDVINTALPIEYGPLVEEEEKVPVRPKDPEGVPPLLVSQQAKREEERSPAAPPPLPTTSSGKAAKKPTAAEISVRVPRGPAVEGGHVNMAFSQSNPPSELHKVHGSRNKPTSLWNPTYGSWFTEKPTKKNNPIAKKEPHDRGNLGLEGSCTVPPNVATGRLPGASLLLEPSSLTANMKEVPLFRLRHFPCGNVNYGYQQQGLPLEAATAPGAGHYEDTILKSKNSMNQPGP
# Test Name: ALK kinase assay (LanthaScreen time-resolved FRET, 10 μM ATP)
# Format: biochemical
# Conditions Used: read-out: IC50
Reported Endpoint: pIC50
Formally, pIC50 is defined as -log10 of the concentration c, with c in mol/L.

Challenge: Give its pIC50 value. Item: CNc1ncc(Cl)c(Nc2cccc(CCl)c2)n1
Response given: 5.43

Challenge: Give its pIC50 value. Item: COc1ccccc1Nc1ncc(Cl)c(NCCS)n1
Response given: 6.30

Challenge: Give its pIC50 value. Item: CNc1ncc(Cl)c(CCl)n1
Response given: 5.11

Challenge: Give its pIC50 value. Item: CC(C)S(=O)(=O)c1ccccc1Nc1nc(NCCS)ncc1Cl
Response given: 6.60
